Data credit: ChEMBL document CHEMBL1201862

Consider the following compounds; for each one, report its GI50.
Tested on: PC-3
Assay: NCI tumour cell line growth inhibition, 48 h
Active and inactive are the calls of the source. Cut-off read from the data, not from the text of the source: active = GI50 up to about 1.1 µM and inactive = higher.

Worked cases, answers included:
Exam item: Return GI50 for the following compound: O=[N+]([O-])C(=C1Nc2ccccc2N1)C(Cl)=C(Cl)Cl
Marked response: > 100 µM (inactive)

Exam item: Tell me GI50 reported for O=C1C=C(OCCCl)C(=O)c2c(O)ccc(O)c21
Marked response: 1.82 µM (inactive)

Exam item: Give GI50 for the following compound: CCCCNC(=S)Nc1nc(C(=O)NNC(=S)NCc2ccccc2)cs1
Marked response: 62.1 µM (inactive)

Exam item: Determine its reported GI50: O=[N+]([O-])c1cc(Cl)cc2cc(Br)cnc12
Marked response: > 31.6 µM (inactive)

Exam item: Assign GI50 to the following record: O=c1c2cc(I)ccc2nc(-c2cccs2)n1O
Marked response: 52.1 µM (inactive)

For the 3 compounds below, give their GI50 values.
1. Cc1nc2ccccc2nc1N1CCCC1
2. COc1cc([N+](=O)[O-])c(S(=O)(=O)O)cc1NS(=O)(=O)c1ccc(C)cc1
3. O=C1/C(=C/c2cccs2)N=C(c2ccccc2)N1c1nc2ccccc2s1

Marked response:
1. > 100 µM (inactive)
2. > 100 µM (inactive)
3. > 100 µM (inactive)
